target: GST-TMEM106B (truncated, comprising amino acids 122-210 of SEQ ID NO:1) (Homo sapiens, UniProt Q9NUM4); assay: Pre-mix epitope binning of anti-TMEM106B antibodies (Carterra / Lake Pharma); format: binding; parameters: key: Bin 1: competes for binding to the same or overlapping TMEM106B region as the TM1, TM17, TM22, TM26, TM79, and/or TM82 antibodies; Bin 2: competes for binding to the same or overlapping TMEM106B region as the TM3, TM9, TM10, TM11, TM12, TM13, TM18, TM19, TM21, TM24, TM25, TM32, TM35, TM37, TM42, TM45, TM48, TM54, TM59, TM60, TM61, and/or TM76 antibodies; Bin 3: competes for binding to the same or overlapping TMEM106B region as the TM7, TM15, TM83, and/or TM84 antibodies; Bin 4: competes for binding to the same or overlapping TMEM106B region as the TMS, TM28, TM29, TM30, TM63, TM64, TM72, TM78, TM80, TM86, and/or TM88 antibodies; Bin 5: does not bind to a truncated TMEM106B comprising amino acids 122-210 of SEQ ID NO:1; details: competition for binding to truncated GST-TMEM106B (amino acids 122-210)
Sequence (Q9NUM4 122-210): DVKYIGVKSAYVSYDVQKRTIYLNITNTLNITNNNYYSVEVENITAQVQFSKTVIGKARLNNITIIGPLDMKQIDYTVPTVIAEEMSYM
endpoint-label: epitope bin

>>> recorded_result("TM-54: anti-TMEM106B monoclonal antibody; VH SEQ ID NO: 464, VL SEQ ID NO: 500 (antibody, V domains shown, Variable Heavy Chain -- TM-54; Variable Light Chain -- TM-54) VH: QVQMQQSGPVLVKPGASVTLSCKASGYTFTTYDLNWVKQRPGQGLEWIGWIYPRGGSTEYNEKFKGKATLTVDTSSSTAYMELHSLTSEDSAVYFCAKYSIYAMDYWGQGTSVTVSS VL: DVLMTQTPLSLPVSLGDQASISCRSSQSIVHGNGNTYLEWYLQKPGQSPKLLIYKVSNRFSGVPDRFSGSGSGTDFTLKISRVEAEDLGVYYCFQGSHVPWTFGGGTKLEMK")
"Bin 2"
>>> recorded_result("TM-78: anti-TMEM106B monoclonal antibody; VH SEQ ID NO: 483, VL SEQ ID NO: 518 (antibody, V domains shown, Variable Heavy Chain -- TM-78; Variable Light Chain -- TM-78) VH: QVQLQQPGAELVKPGASVKLSCKASGYTFTNHWMHWVRQRPGQGLEWIGNIDPSDSDTHYNHKFKDKATLIVDKSSSTAYLQLSSLTSEDSAVFYCARSRGGYYDYGEAMDYWGQGTSVTVSS VL: DIVMTQATPSIPVTPGESVSISCRSSKSLLHVNGNTYLFWFLQRPGQSPQLLIYRMSNLASGVPDRFSGSGSGTAFTLRISRVEAEDVGVYYCMQHLEYPFTFGSGTKLEIK")
"Bin 4"
